The reported numbers originate from ChEMBL document CHEMBL1131843.

# System: Streptococcus pyogenes
# test protocol: In vitro antibacterial activity against Streptococcus pyogenes 77A
# Assay type: functional
# measurement parameters: Streptococcus pyogenes; read-out: MIC
experimental endpoint: MIC (ng/mL)

molecule | tested on | readout units | MIC
C[C@@H](O)[C@H]1C(=O)N2C(C(=O)O)=C(S[C@H]3CN[C@H](C(=O)N4C[C@H](O)[C@@H](O)C4)C3)[C@H](C)[C@H]12 | Streptococcus pyogenes | ng/mL | 25
CC(=O)O[C@H]1CN(C(=O)[C@@H]2C[C@H](SC3=C(C(=O)O)N4C(=O)[C@H]([C@@H](C)O)[C@H]4[C@H]3C)CN2)C[C@@H]1OC(C)=O (stereo in doubt; 1a) | Streptococcus pyogenes | ng/mL | 7

1 = CC(=O)O[C@@H]1CN(C(=O)[C@@H]2C[C@H](SC3=C(C(=O)O)N4C(=O)[C@H]([C@@H](C)O)[C@H]4[C@H]3C)CN2)C[C@H]1OC(C)=O
2 = C[C@@H](O)[C@H]1C(=O)N2C(C(=O)O)=C(S[C@H]3CN[C@H](C(=O)N4C[C@@H](O)[C@H](O)C4)C3)[C@H](C)[C@H]12
## Input Name the one with the greater MIC value, either 1 or 2 as given. Answer format: the label of the selected item.
## Output 2

----------
# test protocol: Area under curve (AUC) was determined in mice at a single subcutaneous administration of 40 mg/kg (n=4)
# Format: ADME, organism-based
# Design: dose 40 mg/kg, route subcutaneous
# measurement parameters: mouse, in vivo, sc
experimental endpoint: AUC (ng·h/mL)
Provide only the numeric value, understood in ng·h/mL.

compound | readout units | AUC
CC(=O)O[C@H]1CN(C(=O)[C@@H]2C[C@H](SC3=C(C(=O)O)N4C(=O)[C@H]([C@@H](C)O)[C@H]4[C@H]3C)CN2)C[C@@H]1OC(C)=O (stereo in doubt; 1a) | ng·h/mL | 6830

## Input What AUC value was documented for this compound, "C[C@@H](O)[C@H]1C(=O)N2C(C(=O)O)=C(S[C@@H]3CN[C@H](C(=O)N(C)C)C3)[C@H](C)[C@H]12" ?
## Output 6860

----------
# System: Enterobacter cloacae
# test protocol: In vitro antibacterial activity against Enterobacter cloacae 1321E
# Format: functional
# measurement parameters: Enterobacter cloacae; read-out: MIC
experimental endpoint: MIC (µg/mL)

Known MIC results, listed for orientation:
compound | readout units | MIC
C[C@@H](O)[C@H]1C(=O)N2C(C(=O)O)=C(S[C@@H]3CN[C@H](C(=O)N4C[C@H](OC(N)=O)[C@@H](OC(N)=O)C4)C3)[C@H](C)[C@H]12 | µg/mL | 0.025
C[C@@H](O)[C@H]1C(=O)N2C(C(=O)O)=C(SCCNC=N)C[C@H]12 [IMIPENEM ANHYDROUS] | µg/mL | 0.195
CC(=O)O[C@H]1CN(C(=O)[C@@H]2C[C@H](SC3=C(C(=O)O)N4C(=O)[C@H]([C@@H](C)O)[C@H]4[C@H]3C)CN2)C[C@@H]1OC(C)=O (stereo in doubt; 1a) | µg/mL | 0.013
C[C@@H](O)[C@H]1C(=O)N2C(C(=O)O)=C(S[C@@H]3CN[C@H](C(=O)N(C)C)C3)[C@H](C)[C@H]12 | µg/mL | 0.025
C[C@@H](O)[C@H]1C(=O)N2C(C(=O)O)=C(S[C@H]3CN[C@H](C(=O)N4C[C@H](O)[C@@H](O)C4)C3)[C@H](C)[C@H]12 | µg/mL | 0.195

1 = C[C@@H](O)[C@H]1C(=O)N2C(C(=O)O)=C(S[C@H]3CN[C@H](C(=O)N4C[C@@H](O)[C@H](O)C4)C3)[C@H](C)[C@H]12
2 = CC(=O)O[C@@H]1CN(C(=O)[C@@H]2C[C@H](SC3=C(C(=O)O)N4C(=O)[C@H]([C@@H](C)O)[C@H]4[C@H]3C)CN2)C[C@H]1OC(C)=O
## Input Name the one with the greater MIC value, either 1 or 2 as given. Answer format: the label of the selected item.
## Output 1
